# key: entry, value: IC50
Target: VDR (Homo sapiens, UniProt P11473)
Sequence (P11473 1-427): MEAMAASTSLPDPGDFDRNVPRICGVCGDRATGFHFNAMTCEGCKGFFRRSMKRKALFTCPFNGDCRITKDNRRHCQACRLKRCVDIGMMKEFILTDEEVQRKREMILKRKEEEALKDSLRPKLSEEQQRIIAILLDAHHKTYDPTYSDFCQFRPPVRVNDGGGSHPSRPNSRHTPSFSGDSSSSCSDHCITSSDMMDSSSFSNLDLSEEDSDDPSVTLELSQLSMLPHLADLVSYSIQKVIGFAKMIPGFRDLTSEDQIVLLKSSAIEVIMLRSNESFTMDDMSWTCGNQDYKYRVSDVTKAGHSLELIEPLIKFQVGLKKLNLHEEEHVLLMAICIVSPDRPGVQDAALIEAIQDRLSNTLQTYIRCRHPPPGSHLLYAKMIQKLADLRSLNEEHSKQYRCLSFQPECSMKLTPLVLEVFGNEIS
Assay: VDR transcription assay in the presence of 100 nM 1,25
Assay type: cell-based
Field: numeric (µM). Do not append units.

[Q] Kindly indicate its recorded IC50. Item: C=C1/C(=C\C=C2/CCC[C@]3(C)[C@@H]([C@H](C)CC(=O)O)CC[C@@H]23)C[C@@H](O)C[C@@H]1O [CTA]
[A] 72.2

Next item in the queue.
[Q] Answer with reported IC50 of C=C1/C(=C\C=C2/CCC[C@]3(C)[C@@H]([C@H](C)CC(=O)OC)CC[C@@H]23)C[C@@H](O)C[C@@H]1O [CTA-ME]
[A] 8.16
